Tested on: Staphylococcus aureus
test: Antibacterial activity against methicillin-resistant Staphylococcus aureus
Type: functional, organism-based
The source made the active and inactive calls. The calls are words filed in the database; no cut-off is given here.
measured-parameter: Activity

[
  {
    "smiles-str": "Fc1ccc(N/N=C/c2ccc(-c3ccc(/C=N/Nc4ccc(F)cc4F)cc3)cc2)c(F)c1",
    "assay-target": "Staphylococcus aureus",
    "Activity": "inactive"
  },
  {
    "smiles-str": "Brc1ccc(N/N=C/c2ccc(-c3ccc(/C=N/Nc4ccc(Br)cc4)cc3)cc2)cc1",
    "assay-target": "Staphylococcus aureus",
    "Activity": "inactive"
  },
  {
    "smiles-str": "COc1cccc(N/N=C(\\C)c2ccc(-c3ccc(/C(C)=N/Nc4cccc(OC)c4)cc3)cc2)c1",
    "assay-target": "Staphylococcus aureus",
    "Activity": "inactive"
  },
  {
    "smiles-str": "C(=N\\Nc1ccccc1)/c1ccc(-c2cccc(/C=N/Nc3ccccc3)c2)cc1",
    "assay-target": "Staphylococcus aureus",
    "Activity": "inactive"
  }
]

Req: Provide only the value of recorded Activity for `Clc1ccc(N/N=C/c2ccc(-c3cccc(/C=N/Nc4ccc(Cl)cc4)c3)cc2)cc1`
Resp: inactive

* * *

test: Selectivity index, ratio of compound concentration showing <25% hemolysis in mouse RBC to MIC for Candida glabrata ATCC 2001
Assay type: toxicity
condition-notes: mouse red blood cells (RBC), read-out: Selectivity Index
measured-parameter: selectivity ratio

Req: Give selectivity ratio for `Fc1ccc(N/N=C/c2ccc(-c3cccc(/C=N/Nc4ccc(F)cc4F)c3)cc2)c(F)c1`
Resp: 1 to 32

* * *

Attribute: selectivity ratio
test: Selectivity index, ratio of CC50 for human A549 cells to MIC for fluconazole/ITC-resistant Candida albicans ATCC MYA-1003
Format: toxicity
condition-notes: read-out: Selectivity Index

Study these solved cases before continuing.
[
  {
    "smiles-str": "C(=N\\Nc1ccccc1)/c1ccc(-c2cccc(/C=N/Nc3ccccc3)c2)cc1",
    "selectivity ratio": 4
  },
  {
    "smiles-str": "Fc1cccc(N/N=C/c2ccc(-c3cccc(/C=N/Nc4cccc(F)c4)c3)cc2)c1",
    "selectivity ratio": 1.5
  },
  {
    "smiles-str": "Fc1ccc(N/N=C/c2ccc(-c3cccc(/C=N/Nc4ccc(F)cc4F)c3)cc2)c(F)c1",
    "selectivity ratio": 2.1
  },
  {
    "smiles-str": "Fc1ccc(N/N=C/c2ccc(-c3ccc(/C=N/Nc4ccc(F)cc4)cc3)cc2)cc1",
    "selectivity ratio": 2.3
  },
  {
    "smiles-str": "C/C(=N\\Nc1ccc(F)cc1)c1ccc(-c2ccc(/C(C)=N/Nc3ccc(F)cc3)cc2)cc1",
    "selectivity ratio": 2.1
  },
  {
    "smiles-str": "C(=N\\Nc1ccccc1)/c1ccc(-c2ccc(/C=N/Nc3ccccc3)cc2)cc1",
    "selectivity ratio": 0.6
  },
  {
    "smiles-str": "Fc1ccccc1N/N=C/c1ccc(-c2cccc(/C=N/Nc3ccccc3F)c2)cc1",
    "selectivity ratio": 2.1
  },
  {
    "smiles-str": "Fc1ccc(N/N=C/c2ccc(-c3cccc(/C=N/Nc4ccc(F)cc4)c3)cc2)cc1",
    "selectivity ratio": 8
  },
  {
    "smiles-str": "Fc1cccc(N/N=C/c2ccc(-c3ccc(/C=N/Nc4cccc(F)c4)cc3)cc2)c1",
    "selectivity ratio": 1
  },
  {
    "smiles-str": "COc1ccc(N/N=C/c2ccc(-c3cccc(/C=N/Nc4ccc(OC)cc4)c3)cc2)cc1",
    "selectivity ratio": 2.3
  }
]

Now, please, on to the next compound.
Req: Answer with reported selectivity ratio of `COc1ccc(N/N=C/c2ccc(-c3ccc(/C=N/Nc4ccc(OC)cc4)cc3)cc2)cc1`
Resp: 4
